Experiment: Plasma pharmacokinetics of baxdrostat and CIN-107-M, multiple ascending dose phase 1 study
Assay type: in vivo, human
Details: human, plasma, po, 0.5 mg, 0.5 mg oral once daily, normal-salt diet, day 10, mean ± SD; read-out: Vss/F
RECORDED_ENDPOINT: Vd/F (L)
A number alone suffices; assume L.

[ask] # input compound: CCC(=O)N[C@@H]1CCCc2c(-c3ccc4c(c3)CCC(=O)N4C)cncc21 [baxdrostat] ; wanted: its Vd/F
[reply] 152

* * *

Assay: Plasma pharmacokinetics of baxdrostat and CIN-107-M, multiple ascending dose phase 1 study
Type: in vivo, human
Conditions: human, plasma, po, 2.5 mg, 2.5 mg oral once daily, normal-salt diet, day 1; read-out: Tmax,D1, median (min, max)
RECORDED_ENDPOINT: Tmax (h)
A number alone suffices; assume h.

[ask] # input compound: CCC(=O)N[C@@H]1CCCc2c(-c3ccc4c(c3)CCC(=O)N4C)cncc21 ; wanted: its Tmax
[reply] 3
